- System: HL-60(TB) leukemia
- testSummary: NCI tumour cell line growth inhibition, 48 h
parameter: TGI

CCN(CC)CCOc1ccc(/C=C2\C[C@H]3[C@@H]4CC=C5C[C@@H](OC(C)=O)CC[C@]5(C)[C@H]4CC[C@]3(C)[C@H]2OC(C)=O)cc1OC	19.5 µM
Cc1cs/c(=N\C(P(=O)(O)O)P(=O)(O)O)n1C	> 100 µM
COc1ccc(Cn2nc(OCc3ccccn3)c3cc([N+](=O)[O-])ccc32)cc1	> 100 µM
Oc1cc2cc(-c3ccccc3)[nH]c2c2ccccc12	> 100 µM
Clc1ccc2c(Cl)ncnc2c1	> 100 µM

QUERY: Any idea what TGI was measured for COc1cccc(-c2nn(-c3ccccc3)cc2-c2ccnc(NCCNC(=O)Nc3ccc(Cl)c(Cl)c3)c2)c1 ?
RESULT: 6.85 µM

QUERY: Any idea what TGI was measured for c1ccc2c(c1)CC1c3[nH]c4ccccc4c3CCN21 (configuration not stated) ?
RESULT: > 10 µM

* * *

Recorded measurements of TGI, one per entry
- Test system: SK-OV-3 ovarian
- testSummary: NCI tumour cell line growth inhibition, 48 h

COc1cc2ccn3c4cc(OC)c(OC)cc4cc3c2cc1OC	> 100 µM
COc1cc(C(=O)Nc2nnc(S(N)(=O)=O)s2)cc(OC)c1OC	> 100 µM
COc1ccc2c(c1O)[C@@]13C=C(O)C(=O)C=C1[C@@H](C2)N(C)CC3	> 100 µM
O=C1/C(=C/c2ccccc2S)N=C(c2ccccc2)N1c1ccc2c(c1)Sc1cc(N3C(=O)/C(=C/c4ccccc4S)N=C3c3ccccc3)ccc1N2	33.8 µM
Oc1ccc2ccccc2c1-c1nnc(CCCCCCCCc2nnc(-c3c(O)ccc4ccccc34)o2)o1	> 100 µM

QUERY: Any idea what TGI was measured for O=C(Nc1cccc2nsnc12)c1cc2c(cc1Cl)Sc1nccn1S2(=O)=O ?
RESULT: > 100 µM

QUERY: Any idea what TGI was measured for CC(=O)NC1C(OCc2ccccc2)OC(COC(=O)CCCCCCCCCCNC(=O)c2cccc3c(=O)c4ccccc4[nH]c23)C(O)C1OC(C)C(=O)NC(C)C(=O)NC(CCC(N)=O)C(N)=O (centres undefined) ?
RESULT: > 100 µM

QUERY: Any idea what TGI was measured for CO[C@H]1C=C[C@]23c4cc5c(cc4CN(CC2O)[C@@H]3C1)OCO5 (some centres undefined) ?
RESULT: 3.3 µM

QUERY: Any idea what TGI was measured for COc1cc(N=Nc2cccc(S(=O)(=O)O)c2)c(C)cc1N=Nc1ccc(/C=C/c2ccc(N=[N+]([O-])c3ccc(/C=C/c4ccc(N=Nc5cc(C)c(N=Nc6cccc(S(=O)(=O)O)c6)cc5OC)cc4)c(S(=O)(=O)O)c3)cc2S(=O)(=O)O)cc1 ?
RESULT: > 100 µM

* * *

- Tested on: SF-539 CNS
- testSummary: NCI tumour cell line growth inhibition, 48 h
Recorded measurements of TGI, one per entry

Please review the following examples before continuing.
COc1cn2c(cc1=O)COc1ccc(-c3ccccc3)cc1-2	> 100 µM
C/C(=N\NS(=O)(=O)c1ccc(C)cc1)c1ccc[n+]([O-])n1	> 100 µM
NC(N)=N/N=C(\c1ccc(Cl)cc1)C1CC1	32.3 µM
CCC1OCCN1C(C)C (stereo not drawn)	> 100 µM
O=C1c2ccccc2S(=O)(=O)c2ccccc21	> 100 µM
CC(=O)NC1C(OCc2ccccc2)OC(COC(=O)CCCCCCCCCCNC(=O)c2cccc3c(=O)c4ccccc4[nH]c23)C(O)C1OC(C)C(=O)NC(C)C(=O)NC(CCC(N)=O)C(N)=O (stereo not drawn)	> 100 µM

QUERY: Any idea what TGI was measured for CC(C)=CCN(N=O)c1ncnc2nc[nH]c12 ?
RESULT: > 100 µM

* * *

- System: HOP-62 NSCLC
- testSummary: NCI tumour cell line growth inhibition, 48 h
parameter: TGI

Please review the following examples before continuing.
CCOC(=O)/C=C1\Nc2ccccc2C12CCc1c([nH]c3ccccc13)C2C(=O)OCC (stereo not drawn)	> 100 µM
CCOC(=O)c1cc(-c2ccc(OC)c(OC)c2)c[nH]1	> 10 µM
CC1=NN(c2ccc(C)cc2)C2(C1)SCC(=O)N2c1nc2ccccc2s1 (stereo not drawn)	> 100 µM
Nc1ncnc2occ(-c3ccc(NC(=O)Nc4cc(C(F)(F)F)cc(C(F)(F)F)c4)cc3)c12	6.99 µM
Cc1cc(CS(=O)(=O)/C=C/c2ccccc2[N+](=O)[O-])c(CS(=O)(=O)/C=C/c2ccccc2[N+](=O)[O-])cc1C	49.4 µM

QUERY: Any idea what TGI was measured for O=C(Nc1cccc2nsnc12)c1cc2c(cc1Cl)Sc1nccn1S2(=O)=O ?
RESULT: 4.37 µM

* * *

- Test system: RXF 393 renal
- testSummary: NCI tumour cell line growth inhibition, 48 h
parameter: TGI

Please review the following examples before continuing.
COc1ccc(C(=O)Cc2cc(OC)ccc2OC)cc1	> 100 µM
O=C1c2cc3c(cc2CC12Cc1cc4c(cc1C2)CCC4)CCC3	> 100 µM
c1ccc2c(c1)CC1c3[nH]c4ccccc4c3CCN21 (configuration not stated)	> 10 µM

QUERY: Any idea what TGI was measured for CN(C)c1ccc(/C=C(\NC(=O)c2ccccc2)C(=O)Nc2ccccc2C(=O)NN2C(=O)CSC2c2ccc(N(C)C)cc2)cc1 (configuration not stated) ?
RESULT: > 100 µM

QUERY: Any idea what TGI was measured for Cc1[nH]c(=O)nc(N/N=C/c2ccc(Cl)c(Cl)c2)c1C(=O)Nc1ccc(Cl)c(Cl)c1 ?
RESULT: 32.7 µM

QUERY: Any idea what TGI was measured for CC(=O)[CH-]C(=O)c1ccccc1.CC(=O)[CH-]C(=O)c1ccccc1.[O]=[U+2]=[O] ?
RESULT: > 100 µM

QUERY: Any idea what TGI was measured for C/C(=N\N(C)C)C(CN(C)C)C(c1ccccc1)c1c(O)c2ccccc2oc1=O (configuration not stated) ?
RESULT: > 100 µM

* * *

- Test system: OVCAR-4 ovarian
- testSummary: NCI tumour cell line growth inhibition, 48 h; in the data active = GI50 below about 0.43 µM; inactive = the rest
Form entry, call: pick from active, inactive

Before answering, review these 2 worked examples.
COC(=O)c1cc(Nc2ccc(O)c3c2C(=O)c2c([N+](=O)[O-])ccc(O)c2C3=O)cc(C(=O)OC)c1	inactive
Cc1ccc(C2=Nc3c(N)ncnc3NC(c3cccc(Nc4ccnc5cc(C(F)(F)F)ccc45)c3)C2)cc1 (stereo not given)	inactive

QUERY: What call does the record list for COc1ccc(C2=CC(c3cc(OC)c(OC)c(OC)c3)n3ncnc3N2)cc1 (stereo not given) ?
RESULT: active

QUERY: What call does the record list for O=C1c2c(O)cccc2C(C(=O)CCCCC(=O)C2c3cccc(O)c3C(=O)c3c(O)cccc32)c2cccc(O)c21 ?
RESULT: inactive

QUERY: What call does the record list for CCOC(=O)c1[nH]c2c(c1C)-c1[nH]c(=O)c(S(=O)(=O)c3ccccc3)cc1SC2 ?
RESULT: inactive

* * *

Recorded measurements of TGI, one per entry
- Tested on: UACC-62 melanoma
- testSummary: NCI tumour cell line growth inhibition, 48 h

Please review the following examples before continuing.
Cc1ncc([N+](=O)[O-])n1CCN=[N+]=[N-]	> 100 µM
Cn1c(N)c(/C=N/NC(=O)CC#N)c(=O)n(C)c1=O	> 100 µM

QUERY: Any idea what TGI was measured for O=c1oc(-c2ccc(O)c(O)c2)cc2cc(O)cc(O)c12 ?
RESULT: > 100 µM

* * *

Recorded measurements of TGI, one per entry
- Tested on: SR leukemia
- testSummary: NCI tumour cell line growth inhibition, 48 h

Please review the following examples before continuing.
Cc1[nH]c(=O)nc(N/N=C/c2ccc(Cl)c(Cl)c2)c1C(=O)Nc1ccc(Cl)c(Cl)c1	> 100 µM
CCOC(=O)C1C/C(C)=C(/C)SCCCS1 (stereo not drawn)	> 100 µM

# evaluate next
QUERY: Any idea what TGI was measured for Cc1ccc(Nc2nc(=O)[nH]c(=O)[nH]2)cc1N ?
RESULT: > 100 µM

* * *

- System: OVCAR-5 ovarian
- testSummary: NCI tumour cell line growth inhibition, 48 h
parameter: TGI

Please review the following examples before continuing.
O=C(Nc1cccc2nsnc12)c1cc2c(cc1Cl)Sc1nccn1S2(=O)=O	> 91.6 µM
COC(=O)C(CC=O)C(=O)C(=O)Nc1cccc(C(F)(F)F)c1 (stereo not given)	> 100 µM
C/C(=N\N=C(N)N)c1c(C(=O)OCCCCCCOC(=O)c2nc3sccn3c2/C(C)=N/N=C(N)N)nc2sccn12	> 100 µM
Oc1cc2cc(-c3ccccc3)[nH]c2c2ccccc12	> 100 µM
COc1ccccc1Cn1cc2c(c1)-c1oncc1CC2	> 74.1 µM

QUERY: Any idea what TGI was measured for Oc1cccc(-c2nc3ccccc3s2)c1 ?
RESULT: 51.5 µM
